pIC50: −log10 of the molar value.
Dear all, this message contains pIC50 results, target or system Tyrosine-protein kinase Lck (Homo sapiens, UniProt P06239).
measurement label: pIC50

{"molecular string": "COc1cc2nc(Nc3c(C)cccc3Cl)c3cnc(C=O)n3c2cc1OC", "value measured": 8.00}
{"molecular string": "c1cncc(-c2nc3ccccc3n3cncc23)c1", "value measured": 6.09}
{"molecular string": "COc1cc2nc(Nc3c(C)cccc3Cl)c3cnc(CO)n3c2cc1OC", "value measured": 8.21}
{"molecular string": "c1ccc2c(c1)nc(C1CC1)c1cncn12", "value measured": 5.50}

---

# target entity: UniProt:P24941

{"molecular string": "Oc1[nH]c2ccc(Br)cc2c1/N=N/c1ccccc1", "units label": "nM", "IC50": 43}
{"molecular string": "Oc1[nH]c2ccccc2c1/N=N/c1ccccc1", "units label": "nM", "IC50": 46}
